# credit: patent US20250188075A1

assay: Solubility assay (thermodynamic solubility); format: physicochemical; conditions: thermodynamic from solid, aqueous buffer, mean, read-out: Thermodynamic Solubility [μmol/L] (mean)
attribute measured: solubility thermodynamic at 24 h (µmol/L)
Could you give me the number in µmol/L? Just the number is fine.

Please report the recorded solubility thermodynamic at 24 h for O=C(Cc1ccns1)Nc1cc(-c2[nH]c3cccnc3c2-c2ccccn2)ccn1 .
30.6

Please report the recorded solubility thermodynamic at 24 h for Cc1noc(C)c1CC(=O)Nc1cc(-c2[nH]c3cccnc3c2-c2ccccn2)ccn1 .
23.3

Please report the recorded solubility thermodynamic at 24 h for Cc1cc(CC(=O)Nc2cc(-c3[nH]c4cccnc4c3-c3ccccn3)ccn2)n(C)n1 .
10.9

Please report the recorded solubility thermodynamic at 24 h for O=C(Cc1ccno1)Nc1cc(-c2[nH]c3cccnc3c2-c2ccccn2)ccn1 .
150

Please report the recorded solubility thermodynamic at 24 h for Cc1nc(CC(=O)Nc2cc(-c3[nH]c4cccnc4c3-c3ccccn3)ccn2)cs1 .
21.3

---

Below are pIC50 values recorded for human CSNK1G3 (Homo sapiens (Human), UniProt Q9Y6M4).
// scale note: pIC50 = -log10(conc_M); give the bare number

Worked examples follow.
| compound | assay result |
| --- | --- |
| Cc1cc(CC(=O)Nc2cc(-c3[nH]c4cccnc4c3-c3ccccn3)ccn2)no1 [Example 26] | 7.58 |
| O=C(Nc1cc(-c2[nH]c3nccnc3c2-c2ccccn2)ccn1)[C@@H](CC(F)F)c1ccc(F)cc1 [Example C1, reference compound] | 8.18 |

Now for a further compound.
Tell me reported pIC50 for O=C(Cc1cnc2ccccc2n1)Nc1cc(-c2[nH]c3cccnc3c2-c2ccccn2)ccn1 [Example 6] , tested with human CSNK1G3 (Homo sapiens (Human), UniProt Q9Y6M4).
Sequence (Q9Y6M4 whole entry): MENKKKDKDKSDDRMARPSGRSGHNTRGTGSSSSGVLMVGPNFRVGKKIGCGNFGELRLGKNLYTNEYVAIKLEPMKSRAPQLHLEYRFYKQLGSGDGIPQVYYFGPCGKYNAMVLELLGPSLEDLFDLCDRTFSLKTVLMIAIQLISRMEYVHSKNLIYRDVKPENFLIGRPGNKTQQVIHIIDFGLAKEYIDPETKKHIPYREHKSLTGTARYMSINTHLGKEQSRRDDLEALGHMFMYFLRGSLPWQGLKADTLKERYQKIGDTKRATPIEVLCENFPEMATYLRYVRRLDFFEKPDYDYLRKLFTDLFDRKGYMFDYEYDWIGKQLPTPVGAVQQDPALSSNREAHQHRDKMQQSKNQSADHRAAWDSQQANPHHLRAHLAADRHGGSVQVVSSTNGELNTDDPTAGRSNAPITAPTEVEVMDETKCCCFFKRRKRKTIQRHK
8.10

---

Recorded measurements of log10 of IC50, one per entry
target: human Ether-a-go-go-Related Gene (hERG) potassium channel (Homo sapiens (Human)); assay: hERG inhibition assay, automated voltage clamp; assay type: cell-based; details: HEK293 cells stably expressing hERG alpha subunit
Sequence (Q12809 whole entry): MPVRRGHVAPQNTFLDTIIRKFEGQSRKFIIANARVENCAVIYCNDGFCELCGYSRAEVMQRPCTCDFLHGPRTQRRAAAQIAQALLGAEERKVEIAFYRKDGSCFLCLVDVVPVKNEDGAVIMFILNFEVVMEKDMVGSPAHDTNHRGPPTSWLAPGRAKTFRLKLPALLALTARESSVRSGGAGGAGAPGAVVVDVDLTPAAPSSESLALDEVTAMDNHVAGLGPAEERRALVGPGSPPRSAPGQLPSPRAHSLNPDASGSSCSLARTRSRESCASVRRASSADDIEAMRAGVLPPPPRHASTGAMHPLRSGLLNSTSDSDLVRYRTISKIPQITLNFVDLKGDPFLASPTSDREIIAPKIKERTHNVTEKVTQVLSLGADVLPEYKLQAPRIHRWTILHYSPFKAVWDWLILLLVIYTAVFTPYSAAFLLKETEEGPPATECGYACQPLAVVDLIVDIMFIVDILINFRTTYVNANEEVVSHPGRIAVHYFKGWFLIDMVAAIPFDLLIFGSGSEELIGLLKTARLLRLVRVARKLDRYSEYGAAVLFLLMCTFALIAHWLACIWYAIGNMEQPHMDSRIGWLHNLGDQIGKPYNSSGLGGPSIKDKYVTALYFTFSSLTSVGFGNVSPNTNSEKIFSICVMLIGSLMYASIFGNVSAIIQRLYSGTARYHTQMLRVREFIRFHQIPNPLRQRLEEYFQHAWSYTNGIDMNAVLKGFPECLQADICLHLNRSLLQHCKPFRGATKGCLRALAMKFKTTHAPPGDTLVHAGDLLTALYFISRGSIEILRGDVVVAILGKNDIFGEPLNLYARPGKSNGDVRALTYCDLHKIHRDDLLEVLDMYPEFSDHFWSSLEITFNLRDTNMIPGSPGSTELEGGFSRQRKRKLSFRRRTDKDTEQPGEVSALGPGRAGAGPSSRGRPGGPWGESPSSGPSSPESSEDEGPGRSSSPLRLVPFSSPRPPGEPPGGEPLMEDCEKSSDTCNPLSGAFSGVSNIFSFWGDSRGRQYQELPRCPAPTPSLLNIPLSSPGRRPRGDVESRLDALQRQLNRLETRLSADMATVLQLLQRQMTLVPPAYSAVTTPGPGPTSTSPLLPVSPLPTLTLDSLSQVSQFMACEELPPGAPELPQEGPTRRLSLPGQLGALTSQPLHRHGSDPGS
# log10 transformed; quantity=IC50; unit=µM

Worked examples follow.
| compound | log10 of IC50 |
| --- | --- |
| O=C(Cc1ccc(F)cc1)Nc1cc(-c2[nH]c3ccc(F)nc3c2-c2ccccn2)ccn1 [Example C4, reference compound] | 0.06 |
| Cc1nc(C)c(CC(=O)Nc2cc(-c3[nH]c4cccnc4c3-c3ccccn3)ccn2)s1 | 0.31 |
| Cn1nc(CC(=O)Nc2cc(-c3[nH]c4cccnc4c3-c3ccccn3)ccn2)cc1C(F)(F)F | -0.09 |
| Cc1nc(CC(=O)Nc2cc(-c3[nH]c4cccnc4c3-c3ccccn3)ccn2)cs1 | 0.78 |
| CC(C)n1ccc(CC(=O)Nc2cc(-c3[nH]c4cccnc4c3-c3ccccn3)ccn2)n1 | 0.94 |
| O=C(Cc1cc2ccccn2n1)Nc1cc(-c2[nH]c3cccnc3c2-c2ccccn2)ccn1 | 0.16 |

Now for a further compound.
Please report the recorded log10 of IC50 for O=C(Cc1cnc2ccccc2n1)Nc1cc(-c2[nH]c3cccnc3c2-c2ccccn2)ccn1 .
0.73

---

Recorded measurements of IC50, one per entry
system: total-p53 in MCF-7 cells; test: HTRF total-p53 in MCF-7 cells; type: cell-based; conditions: Homo sapiens, MCF7, 2 h incubation, median, read-out: HTRF total-p53 MCF-7, IC50 - [mol/l] (median)
Could you give me the number in µM? Just the number is fine.

Please report the recorded IC50 for O=C(Cc1ccno1)Nc1cc(-c2[nH]c3cccnc3c2-c2ccccn2)ccn1 [Example 23] .
0.12

Please report the recorded IC50 for CC(C)n1ccc(CC(=O)Nc2cc(-c3[nH]c4cccnc4c3-c3ccccn3)ccn2)n1 [Example 28] .
0.129

Please report the recorded IC50 for Cn1nc(CC(=O)Nc2cc(-c3[nH]c4cccnc4c3-c3ccccn3)ccn2)cc1C(F)(F)F [Example 21] .
0.0969

Please report the recorded IC50 for Cc1cc(CC(=O)Nc2cc(-c3[nH]c4cccnc4c3-c3ccccn3)ccn2)on1 [Example 13] .
0.152

Please report the recorded IC50 for O=C(Cc1cc(C2CC2)on1)Nc1cc(-c2[nH]c3cccnc3c2-c2ccccn2)ccn1 [Example 27] .
0.169

Please report the recorded IC50 for O=C(Cc1cnc2ccccn12)Nc1cc(-c2[nH]c3cccnc3c2-c2ccccn2)ccn1 [Example 1] .
0.193

Please report the recorded IC50 for Cc1nc(CC(=O)Nc2cc(-c3[nH]c4cccnc4c3-c3ccccn3)ccn2)co1 [Example 25] .
0.321

Please report the recorded IC50 for Cc1cc(CC(=O)Nc2cc(-c3[nH]c4cccnc4c3-c3ccccn3)ccn2)no1 [Example 26] .
0.176
